The values you see were collected from PubChem BioAssay (Tox21).

- METHOD SUMMARY: Caspase-3/7 induction in CHO-K1 cells by small molecules, qHTS cell viability counter screen (AID 1346979); note: nearly all actives have a fitted effect of over 35% in size
- CONDITION DETAILS: CellTiter-Fluor fluorescence, 17 h; series mostly up to 92.4 µM
Results filed as inconclusive are left out. The source made the active and inactive calls. Calls come from the whole dose curve; as a rule, active = well fitted cell-killing curve with a large enough effect in the repeat runs; inconclusive = weak or mixed curves, or effect the other way; inactive = no such curve, though single readings can be large or run the other way.
Labels: yes = active, no = inactive

{"COMPOUND": "FC(F)C(F)(F)OCC(Cn1cncn1)c1ccc(Cl)cc1Cl (stereo not drawn)", "CLASS LABEL": "yes"}
{"COMPOUND": "CN(C)CCc1c[nH]c2ccccc12", "CLASS LABEL": "no"}
{"COMPOUND": "O=C(N[C@H]1N=C(c2ccccc2F)c2cccc3c2N(CC3)C1=O)c1cc2ccccc2[nH]1", "CLASS LABEL": "no"}
{"COMPOUND": "CCn1cc[n+](C)c1 (tested in a mixture with another compound)", "CLASS LABEL": "no"}
{"COMPOUND": "CCOP(=O)(OCC)Oc1cc(C)nc(C(C)C)n1", "CLASS LABEL": "no"}
{"COMPOUND": "CCOC(=O)Cc1ccccc1", "CLASS LABEL": "no"}
{"COMPOUND": "CCC[CH2][Sn]([CH2]CCC)([CH2]CCC)[O][Sn]([CH2]CCC)([CH2]CCC)[CH2]CCC", "CLASS LABEL": "yes"}
{"COMPOUND": "O=[N+]([O-])[O-].[Tl+]", "CLASS LABEL": "yes"}

====

- SYSTEM UNDER TEST: Aromatase (Homo sapiens)
- METHOD SUMMARY: qHTS assay to identify aromatase inhibitors (AID 743083); note: nearly all actives have a fitted effect of over 55% in size
- CONDITION DETAILS: MCF-7 aro ERE, testosterone-driven ERE luciferase, 24 h; series mostly up to 70.3 µM
Results filed as inconclusive are left out. Calls of active or inactive are those of the source. Calls follow the shape of the dose curve; as a rule, active = well fitted inhibition curve with a large enough effect in the repeat runs; inconclusive = weak or mixed curves; inactive = no such curve, though single readings can be large or run the other way.
Labels: active, inactive

{"MOLECULE": "N#CC(C#N)=NNc1cccc(Cl)c1", "CLASS LABEL": "active"}
{"MOLECULE": "CC(C)=CCN1CC[C@@]2(C)c3cc(O)ccc3C[C@@H]1[C@@H]2C", "CLASS LABEL": "inactive"}
{"MOLECULE": "C#CCO", "CLASS LABEL": "inactive"}
{"MOLECULE": "Clc1ccc(C2(Cn3cncn3)OCCO2)c(Cl)c1", "CLASS LABEL": "inactive"}
{"MOLECULE": "ClC1(Cl)C2(Cl)C3(Cl)C4(Cl)C(Cl)(Cl)C5(Cl)C3(Cl)C1(Cl)C5(Cl)C24Cl (stereo not drawn)", "CLASS LABEL": "inactive"}
{"MOLECULE": "CN1[C@@H]2CC[C@H]1CC(O)C2 (stereo partly drawn)", "CLASS LABEL": "inactive"}
{"MOLECULE": "CSC(C)(C)/C=N/O", "CLASS LABEL": "inactive"}
{"MOLECULE": "CCC1COC(Cn2cncn2)(c2ccc(Cl)cc2Cl)O1 (stereo not drawn)", "CLASS LABEL": "active"}
{"MOLECULE": "CCC[CH2][Sn]([CH2]CCC)([CH2]CCC)[O][Sn]([CH2]CCC)([CH2]CCC)[CH2]CCC", "CLASS LABEL": "active"}
{"MOLECULE": "Clc1cc(Cl)c(-c2cc(Cl)c(Cl)cc2Cl)cc1Cl", "CLASS LABEL": "inactive"}
{"MOLECULE": "Cc1cc(C2CC2)nc(Nc2ccccc2)n1", "CLASS LABEL": "inactive"}
{"MOLECULE": "CCN(CC)CCN1C(=O)CN=C(c2ccccc2F)c2cc(Cl)ccc21", "CLASS LABEL": "inactive"}
{"MOLECULE": "O=S(=O)(O)F", "CLASS LABEL": "inactive"}
{"MOLECULE": "CNC(=O)O/N=C(\\C)C(C)S(C)(=O)=O (stereo not drawn)", "CLASS LABEL": "inactive"}
{"MOLECULE": "C[N+]1(C)[C@@H]2CC[C@H]1CC(OC(=O)C(CO)c1ccccc1)C2 (stereo partly drawn)", "CLASS LABEL": "inactive"}
{"MOLECULE": "O=c1[nH]c(Cl)c(Cl)cc1Cl", "CLASS LABEL": "inactive"}
{"MOLECULE": "COC(=O)C(C)N(C(=O)c1ccco1)c1c(C)cccc1C (stereo not drawn)", "CLASS LABEL": "inactive"}
{"MOLECULE": "CC(C)C(Nc1ccc(C(F)(F)F)cc1Cl)C(=O)OC(C#N)c1cccc(Oc2ccccc2)c1 (stereo not drawn)", "CLASS LABEL": "inactive"}
